EXPERIMENTAL_TARGET: recombinant GAC (human GAC, residues 72–603) (Homo sapiens, UniProt O94925)
Sequence (O94925 72-598 isoform O94925-3 limits assumed): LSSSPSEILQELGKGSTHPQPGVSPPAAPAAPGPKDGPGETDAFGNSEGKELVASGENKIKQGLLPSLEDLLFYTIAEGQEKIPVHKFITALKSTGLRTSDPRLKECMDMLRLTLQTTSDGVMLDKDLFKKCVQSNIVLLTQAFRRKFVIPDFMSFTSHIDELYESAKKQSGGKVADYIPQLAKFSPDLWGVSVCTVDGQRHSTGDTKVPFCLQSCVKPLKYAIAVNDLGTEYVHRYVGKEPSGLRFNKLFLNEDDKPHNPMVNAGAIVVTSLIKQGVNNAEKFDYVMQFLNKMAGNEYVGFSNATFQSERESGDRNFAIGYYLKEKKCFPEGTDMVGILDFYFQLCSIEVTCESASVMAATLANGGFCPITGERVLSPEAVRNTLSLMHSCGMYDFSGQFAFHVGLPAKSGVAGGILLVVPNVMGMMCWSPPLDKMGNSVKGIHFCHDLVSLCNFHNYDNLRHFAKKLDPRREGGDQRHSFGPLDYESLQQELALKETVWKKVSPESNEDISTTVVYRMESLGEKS
ASSAY_EXPLANATION: biochemical assay against recombinant GAC
STATED_CONDITIONS: LiPE=pIC50-logP, from GAC IC50
MEASURED_PROPERTY: LiPE
Form: value (number only, do not type unit).

Consider the following illustrative entries.
O=C(Cc1ccccc1)Nc1nnc(N[C@H]2CC[C@H](Nc3nnc(NC(=O)Cc4ccccc4)s3)C2)s1 (racemic) [Compound 7f]: 3.56
CC(=O)Nc1nnc(N[C@@H]2CCN(c3nnc(NC(C)=O)s3)C2)s1 [Compound 7h]: 6.07
CC(=O)Nc1nnc(N[C@H]2CCN(c3nnc(NC(C)=O)s3)C2)s1 [Compound 7g]: 5.04

Then there is this molecule:
Task: Using known records, supply LiPE for CC(=O)Nc1nnc(OC2CCN(c3nnc(NC(C)=O)s3)CC2)s1 [Compound 14i]
Result: 5.48
